- Test system: KM12
- ASSAY EXPLANATION: NCI tumour cell line growth inhibition, 48 h
The source made the active and inactive calls. Rule as the data show it: active = GI50 up to about 1.1 µM and inactive = higher.
Would you mind answering with one of these outcomes? label 1 for active, label 0 for inactive

Please review the entries below; each comes with its answer.
* CCOC(=O)C1C(c2ccc3c(c2)OCO3)c2c(n[nH]c2O)CC1(O)OCC (stereo not given) | label 0
* Cn1cnc([N+](=O)[O-])c1[Se]c1ncnc2nc[nH]c12 | label 0
* N#CC(C(=O)/C(=N/NC(=O)c1ccccc1O)C(C#N)c1ccccc1)c1ccccc1 (stereo not given) | label 0

Task: # lookup: test call for `CCCCNC(=S)Nc1nc(C(=O)NNC(=S)NCC)cs1`
Output: label 0

Task: # lookup: test call for `COc1cc2c(c(OC)c1OC)-c1ccc(SC)c(=O)cc1[C@@H](OC(C)=O)CC2`
Output: label 1

Task: # lookup: test call for `CCN(CC)c1ccc2cc(-c3csc(-c4ccc(N(C)C)cc4)n3)c(=O)oc2c1`
Output: label 0

Task: # lookup: test call for COC(=O)C1=C(OC(=O)/C(=C/c2ccc(Cl)cc2)c2ccc(Cl)cc2)C(C(=O)OC)[C@@]2(O)[C@@H](C(=O)OC)[C@H](C)C[C@@H]1[C@@H]2C(=O)OC (stereo not given in full)
Output: label 0

Task: # lookup: test call for `O=C1C=CC(=O)N1c1ccc(I)cc1`
Output: label 0

Task: # lookup: test call for `Cc1nc(N)sc1C(=O)/C=C/c1ccc([N+](=O)[O-])cc1`
Output: label 0

Task: # lookup: test call for C=C(C)[C@H]1C2=CC(C)=C(O2)[C@@H](O)[C@H](C(=C)C)CCC2=C[C@H]1OC2=O [KALLOLIDE A]
Output: label 0
